# reported polymerase ribozyme fitness (log ratio); entries follow
B1: TPR 5TU (parent)
chain: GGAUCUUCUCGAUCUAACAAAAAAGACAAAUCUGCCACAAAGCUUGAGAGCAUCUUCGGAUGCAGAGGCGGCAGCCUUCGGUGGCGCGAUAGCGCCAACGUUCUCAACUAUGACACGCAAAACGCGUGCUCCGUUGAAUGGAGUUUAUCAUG

# Variants of: B1
# Experiment: polymerase ribozyme fitness, log enrichment relative to wild type (log ratio); higher = more active; in vitro selection for triplet polymerase activity
Fewer inactive variants are shown than the library holds.
// return just the number, without any unit appended

Here are 5 variants together with their reported answers.
>>> measurement("G50C G59C G83A")
-3.91
>>> measurement("A17G G48C G94A C95U")
-3.29
>>> measurement("A29C U33G A40U G80U G94U U102C G143A U151A")
-3.89
>>> measurement("G84U U104G")
-2.26
>>> measurement("A21U A47U C93U")
-0.679

Identify the reported polymerase ribozyme fitness (log ratio) for the following entry. A89C U148C
-3.51

Identify the reported polymerase ribozyme fitness (log ratio) for the following entry. C32U C85U
-1.97
